Reference for the values: PubChem BioAssay (NCATS)

METHOD_NOTES: qHTS of pediatric cancer cell lines to identify multiple opportunities for drug repurposing: Confirmatory screen for SJ-GBM2 cells (AID 1347116);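 also: 48 hour compound exposure; nearly all actives have a fitted effect of over 60% in size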; also: potency is read from the fitted curve at half-maximal effect
CONDITION_CONTEXT: SJ-GBM2 glioblastoma cells, viability; series mostly up to 45.9 µM
Records with an inconclusive call do not appear. Activity calls are given as the source filed them. Calls follow the shape of the dose curve; as a rule, active = well fitted cell-killing curve with a large enough effect; inconclusive = small, poorly fitted or top-dose-only effect, or effect the other way; inactive = no such curve, though single readings can be large or run the other way.
PROPERTY: Potency

* CC1(C)O[C@@H]2C[C@H]3[C@@H]4CCC5=CC(=O)CC[C@]5(C)[C@@]4(F)[C@@H](O)C[C@]3(C)[C@]2(C(=O)CCl)O1 | inactive
* CC(=O)OCC(=O)[C@@]12OC(C)(C)O[C@@H]1C[C@H]1[C@@H]3C[C@H](F)C4=CC(=O)C=C[C@]4(C)[C@@]3(F)[C@@H](O)C[C@@]12C | inactive
* CC(=O)OCC(=O)[C@@]1(O)CC[C@H]2[C@@H]3CCC4=CC(=O)C=C[C@]4(C)[C@H]3[C@@H](O)C[C@@]21C | inactive
* CC(=O)[C@H]1CC[C@H]2[C@@H]3C[C@H](C)C4=CC(=O)CC[C@]4(C)[C@H]3[C@@H](O)C[C@]12C | inactive
* C[n+]1c2cc(N)ccc2cc2ccc(N)cc21 (tested in a mixture with another compound) | 13.1 µM (active)
* CCCCC(CC)CN=C(N)NC(N)=NCCCCCCN=C(N)NC(N)=NCC(CC)CCCC (configuration not stated) | 1.17 µM (active)
* CC1(C)O[C@@H]2C[C@H]3[C@@H]4C[C@H](F)C5=CC(=O)CC[C@]5(C)[C@H]4[C@@H](O)C[C@]3(C)[C@]2(C(=O)CO)O1 | inactive

---

Test system: ATS189
METHOD_NOTES: qHTS profiling for inhibitors of Plasmodium falciparum proliferation (AID 504749); also: nearly all actives have a fitted effect of over 60% in size
CONDITION_CONTEXT: P. falciparum in erythrocytes, SYBR Green DNA, 72 h; series mostly up to 28.7 µM
Inconclusive results are not listed. Calls of active or inactive are those of the source. Calls come from the whole dose curve; as a rule, active = well fitted inhibition curve with a large enough effect; inconclusive = small, poorly fitted or top-dose-only effect; inactive = flat fitted curve, though single readings scatter.
Classes used: active, inactive

• CN1CCN(C(c2ccccc2)c2ccccc2)CC1 = inactive
• CCCCC(CC)CN=C(N)NC(N)=NCCCCCCN=C(N)NC(N)=NCC(CC)CCCC (stereo not given) = active
• CC(=O)Nc1c(I)cc(I)c(C(=O)O)c1I = inactive
• C[C@H]1C[C@H]2[C@@H]3CCC4=CC(=O)C=C[C@]4(C)[C@@]3(Cl)[C@@H](O)C[C@]2(C)[C@@]1(O)C(=O)CO = inactive
• C#C[C@]1(O)CC[C@H]2[C@@H]3CCc4cc(OC5CCCC5)ccc4[C@H]3CC[C@@]21C = inactive
• CCOc1ccc(NC(=O)CC(C)O)cc1 (stereo not given) = inactive
• NCCc1ccn[nH]1 = inactive
• CCCCN1CCCC1C(=O)Nc1c(C)cc(C)cc1C (stereo not given) = inactive
• COc1cccc(CCc2ccccc2OCC(CN(C)C)OC(=O)CCC(=O)O)c1 (stereo not given) = active
• Nc1ccc(/C=C/c2ccc(N)cc2S(=O)(=O)O)c(S(=O)(=O)O)c1 = inactive
• CCN(CC)C(=O)N1CCN(C)CC1 = inactive
• Cc1cccn2c(=O)c(-c3nnn[nH]3)cnc12 = inactive
• Nc1ccc(C(=O)O)cc1 = inactive
• O=C1CCC(c2ccc(-n3ccnc3)cc2)=NN1 = inactive
• O=C(COc1ccc(Cl)cc1)N1CCN(Cc2ccc3c(c2)OCO3)CC1 = inactive
• CC(C)COC(=O)OCN1C(=O)CN(CCN2CC(=O)N(COC(=O)OCC(C)C)C(=O)C2)CC1=O = inactive
• CCCCCC=CCC=CCCCCCCCC(=O)OCC = inactive
• CCOC(=O)n1ccn(C)c1=S = inactive
• CC(=O)OCC(=O)NCCCOc1cccc(CN2CCCCC2)c1 = inactive
• Cc1ccc(O)c2ncccc12 = inactive
• NC(=O)C(=O)N/N=C/c1ccc([N+](=O)[O-])o1 = inactive
• CCN(CC)CCOC(=O)C(c1ccccc1)C1CCCCC1 (stereo not given) = inactive
• C=CCc1ccc(O)c(OC)c1 = inactive
• CCCCCCCCCCCCCCCCCC(=O)OCC(O)CO (stereo not given) = inactive
• CC1(C)CCC(NC(=O)[C@@H](N)CCC(=O)O)CC1 = inactive
